target: human β3 adrenergic receptor (Homo sapiens); construct: expressed in transfected cells; host or cells: DXB-11 Chinese hamster ovary (CHO) cell line, stably transfected (phd expression vector); assay: whole cell receptor coupled c-AMP assay, human β3 receptor in CHO cells (EC50, Emax relative to isoproterenol); type: cell-based; details: Emax ± standard error of the mean; average of at least 3 runs except where n = 1; compound tested in the isolated form listed
Sequence (P13945 whole entry): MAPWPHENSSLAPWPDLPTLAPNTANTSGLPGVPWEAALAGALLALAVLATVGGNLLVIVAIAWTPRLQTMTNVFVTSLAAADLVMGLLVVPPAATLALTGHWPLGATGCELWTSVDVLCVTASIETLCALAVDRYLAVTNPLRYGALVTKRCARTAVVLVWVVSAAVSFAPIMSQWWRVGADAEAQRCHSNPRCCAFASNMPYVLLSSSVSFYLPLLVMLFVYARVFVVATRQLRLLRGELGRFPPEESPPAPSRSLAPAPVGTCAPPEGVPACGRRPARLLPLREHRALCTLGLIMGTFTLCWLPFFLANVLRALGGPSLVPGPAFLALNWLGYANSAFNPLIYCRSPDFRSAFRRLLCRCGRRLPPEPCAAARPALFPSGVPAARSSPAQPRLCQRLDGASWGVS
outcome-measure: Emax (%) ± SEM

Guide cases for Emax (%) ± SEM, answers given:
CC(C)(Cc1ccc(Oc2ncc(Cl)cc2Cl)cc1)NC[C@H](O)COc1ccccc1-c1cccs1.O=C(O)C(F)(F)F [Example 173]	87.9
CC(C)(Cc1ccc(Oc2ncccc2C(N)=O)cc1)NC[C@H](O)COc1ccccc1-n1cccn1.Cl [Example 102]	46.1
CC(C)(Cc1ccc(Oc2ccc(C#N)cn2)cc1)NC[C@H](O)COc1ccccc1-c1cscn1.Cl [Example 247]	45.4
CC(C)(Cc1ccc(Oc2cnccn2)cc1)NC[C@H](O)COc1ccccc1-c1cscn1.Cl [Example 256]	50.6
CC(C)(Cc1ccc(Oc2cccc(Cl)c2C#N)cc1)NC[C@H](O)COc1ccccc1-c1cscn1.Cl [Example 245]	56.1
CC(C)(Cc1ccc(Oc2ccc(C(N)=O)cn2)cc1)NC[C@H](O)COc1ccccc1-c1csnn1.O=C(O)C(=O)O [Example 44]	22.1
CC(C)(Cc1ccc(Oc2ccc(S(N)(=O)=O)cc2F)cc1)NC[C@H](O)COc1ccccc1-c1cscn1.Cl [Example 251]	33.4
CC(C)(Cc1ccc(Oc2ccc(C(N)=O)cn2)cc1)NC[C@H](O)COc1ccccc1-c1cc2ccccc2[nH]1 [Example 20]	30.4
CC(C)(Cc1ccc(Oc2ccc(C#N)nc2)cc1)NC[C@H](O)COc1ccccc1-c1cccs1.O=C(O)C(F)(F)F [Example 220]	56.0
CC(C)(Cc1ccc(Oc2ncccc2C(N)=O)cc1)NC[C@H](O)COc1ccccc1-n1ccnc1.Cl [Example 104]	36.0

P = CC(C)(Cc1ccc(Oc2ccc(C(N)=O)cn2)cc1)NC[C@H](O)COc1ccccc1-n1cccn1.Cl [Example 47]
Q = CC(C)(Cc1ccc(Oc2ncc(C(F)(F)F)cc2Cl)cc1)NC[C@H](O)COc1ccccc1-c1cccs1.O=C(O)C(F)(F)F [Example 159]
Query :: Emax (%) ± SEM comparison. Which is larger, P or Q ? Identify your selection by its label.
Result :: Q
(Q: 76.9%, P: 35.5%)

----------
biological target: human β3 adrenergic receptor (Homo sapiens); construct: expressed in transfected cells; host or cells: DXB-11 Chinese hamster ovary (CHO) cell line, stably transfected (phd expression vector); experiment: whole cell receptor coupled c-AMP assay, human β3 receptor in CHO cells (EC50, Emax relative to isoproterenol); assay type: cell-based; details: Emax ± standard error of the mean; average of at least 3 runs except where n = 1; compound tested in the isolated form listed
outcome-measure: Emax (%) ± SEM

Some solved entries appear below for comparison.
CC(C)(Cc1ccc(Oc2ccc(S(N)(=O)=O)cc2F)cc1)NC[C@H](O)COc1ccccc1-c1cccs1.O=C(O)C(F)(F)F [Example 225]	59.5
CC(C)(Cc1ccc(Oc2ncccc2C(N)=O)cc1)NC[C@H](O)COc1ccccc1-c1nccs1 [Example 70]	73.8
CC(C)(Cc1ccc(Oc2ccc(C(N)=O)cn2)cc1)NC[C@H](O)COc1ccccc1-c1nc2ccccc2o1 [Example 26]	41.4

1 = CC(C)(Cc1ccc(Oc2ccc(C(F)(F)F)cn2)cc1)NC[C@H](O)COc1ccccc1-c1nccs1.O=C(O)C(F)(F)F [Example 194]
2 = CC(C)(Cc1ccc(Oc2ccc(C(N)=O)cn2)cc1)NC[C@H](O)COc1ccccc1C1=CC(=O)OC1.Cl [Example 41]
Query :: Hi, I'm comparing 1 with 2 and wondering which one has the bigger number for Emax (%) ± SEM. Any idea? Mark your answer with the label of the selected entry.
Result :: 1
(1: 56.6%, 2: 33.5%)

P = CC(C)(Cc1ccc(Oc2ccc(S(C)(=O)=O)cc2Cl)cc1)NC[C@H](O)COc1ccccc1-c1nccs1.O=C(O)C(F)(F)F [Example 182]
Q = CC(C)(Cc1ccc(Oc2ccc(C(N)=O)nc2)cc1)NC[C@H](O)COc1ccccc1-n1cccc1.Cl [Example 266]
Query :: Lower value of Emax (%) ± SEM belongs to which: P or Q ? Refer to your chosen entry by its label in the reply.
Result :: Q
